Literature IC50 values, system: Endothelin receptor type B (Sus scrofa, UniProt P35463).
Sequence (P35463 whole entry): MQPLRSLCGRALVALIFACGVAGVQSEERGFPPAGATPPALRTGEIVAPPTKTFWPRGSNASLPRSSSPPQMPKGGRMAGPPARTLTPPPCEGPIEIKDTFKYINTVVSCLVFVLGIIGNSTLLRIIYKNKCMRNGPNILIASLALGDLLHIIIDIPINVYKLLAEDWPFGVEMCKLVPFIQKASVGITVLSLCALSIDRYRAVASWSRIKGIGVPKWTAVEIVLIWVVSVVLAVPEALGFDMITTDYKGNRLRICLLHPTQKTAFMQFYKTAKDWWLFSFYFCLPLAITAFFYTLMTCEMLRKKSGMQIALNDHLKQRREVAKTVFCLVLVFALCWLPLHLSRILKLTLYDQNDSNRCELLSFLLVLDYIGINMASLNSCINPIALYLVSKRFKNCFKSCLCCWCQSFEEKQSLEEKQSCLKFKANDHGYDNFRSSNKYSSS
API: label(entry) gives Fulfilled if the entry's IC50 is strictly smaller than 600 nM; on equality or larger values it gives Not fulfilled.

Example entries and their recorded answers appear below.
1. COc1ccc(S(=O)(=O)NC(=O)C(c2ccc3c(c2)OCO3)n2nc(C)ccc2=O)cc1 (stereo unspecified) | Not fulfilled
2. CCCCN(CCCC)C(=O)CN1C[C@H](c2ccc(F)cc2)[C@@H](C(=O)O)[C@@H]1c1ccc(OC)cc1 | Not fulfilled
3. Cc1oc([C@@H](Cc2c[nH]c3ccccc23)NC(=O)[C@H](CC(C)C)NC(=O)N2CCCCCC2)nc1CC(=O)O | Not fulfilled
4. Cc1oc([C@@H](Cc2c[nH]c3ccccc23)NC(=O)[C@H](CC(C)C)NC(=O)NCc2ccccc2)nc1C(=O)O | Not fulfilled
5. Cc1oc([C@@H](Cc2cn(C)c3ccccc23)NC(=O)[C@H](CC(C)C)NC(=O)NC23CC4CC(CC(C4)C2)C3)nc1C(=O)O | Not fulfilled

Decide: IC50 of "CCCN(CCN1C[C@H](c2ccc3c(c2)OCO3)[C@@H](C(=O)O)[C@@H]1c1ccc(OC)cc1)S(=O)(=O)CCC" strictly below 600 nM? Fulfilled

Another molecule to check: "Cc1[nH]c([C@@H](Cc2cn(C)c3ccccc23)NC(=O)[C@H](CC(C)C)NC(=O)NC2CCCCC2)nc1C(=O)O" Not fulfilled

Another molecule to check: "COc1cc(C/C(C(=O)c2ccc(OC(C)C)cc2)=C(/C(=O)O)c2ccc3nsnc3c2)cc(OC)c1OC" Fulfilled

Another molecule to check: "COc1ccc(C(=O)/C(Cc2ccc3c(c2)CCO3)=C(\C(=O)O)c2ccc3nsnc3c2)cc1" Not fulfilled

Another molecule to check: "COc1ccc(C(=O)/C(Cc2ccccc2)=C(\C(=O)O)c2ccc3nsnc3c2)cc1" Not fulfilled

Another molecule to check: "CCCCN(CCN1C[C@H](c2ccc3c(c2)OCO3)[C@@H](C(=O)O)[C@@H]1c1ccc(OC)cc1)S(=O)(=O)CCC" Fulfilled

Another molecule to check: Cc1oc([C@@H](Cc2cn(C)c3ccccc23)NC(=O)[C@H](CC(C)C)NC(=O)NC2CCCc3ccccc32)nc1C(=O)O (stereo partly specified) Not fulfilled
